- assay explanation: Individual predicted steady‐state exposures
- Assay type: in vivo, human
- condition label: human, plasma, C max,ss geometric mean (CV), Asian population: China (only)
property name: Cmax (ng/mL)
The reply should be a number in ng/mL, with the unit left off.

CC(C)(O/N=C(\C(=O)N[C@@H]1C(=O)N2C(C(=O)[O-])=C(C[n+]3ccccc3)CS[C@H]12)c1csc(N)n1)C(=O)O [Ceftazidime, ceftazidime] | 78400

Turning now to a further molecule:
Please report the recorded Cmax for NC(=O)[C@@H]1CC[C@@H]2CN1C(=O)N2OS(=O)(=O)O [Avibactam, avibactam] .
14900

###

- assay explanation: Individual predicted steady‐state exposures
- Type: in vivo, human
- condition label: human, plasma, intravenous, C max,ss geometric mean (CV), Patient population: VAP
property name: Cmax (ng/mL)
Enter your answer as a number in ng/mL; do not include the unit.

NC(=O)[C@@H]1CC[C@@H]2CN1C(=O)N2OS(=O)(=O)O | 12000

Could you now consider this next compound?
Field request: Cmax | item: CC(C)(O/N=C(\C(=O)N[C@@H]1C(=O)N2C(C(=O)[O-])=C(C[n+]3ccccc3)CS[C@H]12)c1csc(N)n1)C(=O)O
61900

###

As shown below, each of these molecules has a reported Cmax value.
- assay explanation: Individual predicted steady‐state exposures
- Type: in vivo, human
- condition label: human, plasma, C max,ss geometric mean (CV), Concomitant use of OAT1/OAT3 inhibitor(s): Yes
Only the number, expressed in ng/mL, is required.

CC(C)(O/N=C(\C(=O)N[C@@H]1C(=O)N2C(C(=O)[O-])=C(C[n+]3ccccc3)CS[C@H]12)c1csc(N)n1)C(=O)O | 78500

Requested field: Cmax. Item: NC(=O)[C@@H]1CC[C@@H]2CN1C(=O)N2OS(=O)(=O)O
13700

###

- assay explanation: Final avibactam PopPK model
- Assay type: in vivo, human
- condition label: human, plasma, intravenous, CL, patients with ESRD, on‐dialysis
property name: clearance (mL/min)
Only the number, expressed in mL/min, is required.

Entry NC(=O)[C@@H]1CC[C@@H]2CN1C(=O)N2OS(=O)(=O)O : reported clearance = ?
347

###

- assay explanation: Individual predicted steady‐state exposures
- Format: in vivo, human
- condition label: human, plasma, C max,ss geometric mean (CV), Race: Asian (non‐Chinese; non‐Japanese)
Cmax by entry:
Phrase the answer as number then unit, nothing more needed.

NC(=O)[C@@H]1CC[C@@H]2CN1C(=O)N2OS(=O)(=O)O [Avibactam, avibactam] | 14900 ng/mL

Now consider a different molecule.
Endpoint output: Cmax of CC(C)(O/N=C(\C(=O)N[C@@H]1C(=O)N2C(C(=O)[O-])=C(C[n+]3ccccc3)CS[C@H]12)c1csc(N)n1)C(=O)O [Ceftazidime, ceftazidime] . Value?
82200 ng/mL

###

- assay explanation: Individual predicted steady‐state exposures
- Type: in vivo, human
- condition label: human, plasma, AUCss,0–24 geometric mean (CV), Obesity III (BMI ≥ 39.9 kg/m^2)
property name: AUC (µg·h/mL)
Please respond with the number in µg·h/mL and leave the unit unwritten.

CC(C)(O/N=C(\C(=O)N[C@@H]1C(=O)N2C(C(=O)[O-])=C(C[n+]3ccccc3)CS[C@H]12)c1csc(N)n1)C(=O)O | 806

May I ask what AUC has been recorded for NC(=O)[C@@H]1CC[C@@H]2CN1C(=O)N2OS(=O)(=O)O ?
115

The reported numbers originate from paper PMC6440567.
